This section presents compounds with their documented pIC50 values.
target-of-assay: (recombinant) catalytic domain of human Bub1 (amino acids 704-1085) (Homo sapiens (Human))
run-description: Bub1 kinase assay (TR-FRET)
measurement-parameters: ATP 10 μM final, peptide substrate 1 μM final, 60 min at 22° C., read-out: Biological Assay: Bub1 kinase assay median IC50
Protocol: Examples were tested in selected biological assays one or more times. When tested more than once, data are reported as either average values or as median values, wherein • the average value, also referred to as the arithmetic mean value, represents the sum of the values obtained divided by the number of times tested, and • the median value represents the middle number of the group of values when ranked in ascending or descending order. […]
pIC50: −log10 of the molar value.

{"smiles-representation": "CC1(C)CC(=O)c2c([nH]c(-c3ccncc3)c2Nc2ncccc2CO)C1", "pIC50": 7.19}
{"smiles-representation": "CC1(C)CC(=O)c2c([nH]c(-c3ccnc(NCCCc4ccccc4)c3)c2Nc2ccccc2)C1", "pIC50": 5.84}
{"smiles-representation": "CCCn1c2c(c(Nc3ccccc3)c1-c1ccncc1)C(=O)CCC2", "pIC50": 7.84}
{"smiles-representation": "CCO/N=C1\\CC(C)(C)Cc2[nH]c(-c3ccncc3)c(Nc3ccccc3)c21", "pIC50": 5.91}

----------
target-of-assay: (recombinant) catalytic domain of human Bub1 (amino acids 704-1085) (Homo sapiens (Human), UniProt O43683)
Sequence (O43683 704-1085): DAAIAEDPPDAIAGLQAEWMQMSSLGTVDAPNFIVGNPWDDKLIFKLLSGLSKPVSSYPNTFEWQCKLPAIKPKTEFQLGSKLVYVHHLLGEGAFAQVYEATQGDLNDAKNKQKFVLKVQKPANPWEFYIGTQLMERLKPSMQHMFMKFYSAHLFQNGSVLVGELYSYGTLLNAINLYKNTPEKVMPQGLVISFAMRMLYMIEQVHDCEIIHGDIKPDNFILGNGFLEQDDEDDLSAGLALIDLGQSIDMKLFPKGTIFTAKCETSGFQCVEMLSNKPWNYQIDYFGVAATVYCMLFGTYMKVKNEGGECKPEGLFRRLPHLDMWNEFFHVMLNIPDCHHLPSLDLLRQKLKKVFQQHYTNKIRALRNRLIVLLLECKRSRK
run-description: Bub1 kinase assay (TR-FRET)
measurement-parameters: ATP 10 μM final, peptide substrate 1 μM final, 60 min at 22° C., read-out: Biological Assay: Bub1 kinase assay median IC50
pIC50: −log10 of the molar value.
measured-metric: pIC50

{"compound": "CC1(C)CC(=O)c2c([nH]c(-c3ccnc(NCCCCc4ccccc4)c3)c2Nc2ccccc2)C1 [Example 507]", "observed": 6.02}
{"compound": "O=C(COCc1ccc(F)cc1)Nc1cc(-c2[nH]c3c(c2Nc2ccccc2)C(=O)CCC3)ccn1 [Example 341]", "observed": 8.10}
{"compound": "CC1(C)CC(=O)c2c([nH]c(-c3ccnc(NC(=O)c4ccc(F)c(F)c4)c3)c2Nc2ccccc2)C1 [Example 473]", "observed": 7.99}
{"compound": "CC(C)(CO)C(=O)Nc1cc(-c2[nH]c3c(c2Nc2ccccc2)C(=O)CCC3)ccn1 [Example 243]", "observed": 6.59}
{"compound": "CC1(C)CC(=O)c2c([nH]c(-c3ccncc3)c2Nc2cc(Cl)ccc2Cl)C1 [Example 78]", "observed": 5.16}
{"compound": "CCn1c2c(c(Nc3ccccc3)c1-c1ccnc(NC(C)=O)c1)C(=O)CC(C)(C)C2 [Example 187]", "observed": 7.28}
{"compound": "CC1(C)CC(=O)c2c([nH]c(-c3ccncc3)c2Nc2ccccc2Oc2ccccc2)C1 [Example 159]", "observed": 5.97}
{"compound": "CC1(C)CC(=O)c2c([nH]c(-c3ccncc3)c2Nc2cccc(N)c2)C1 [Example 65]", "observed": 6.28}

----------
Below, each of the molecules is paired with its reported log10(IC50) value.
target-of-assay: (recombinant) catalytic domain of human Bub1 (amino acids 704-1085) (Homo sapiens (Human))
run-description: Bub1 kinase assay (TR-FRET)
measurement-parameters: ATP 10 μM final, peptide substrate 1 μM final, 60 min at 22° C., read-out: Biological Assay: Bub1 kinase assay median IC50
measured-metric: log10(IC50) (log10 of the value in nM)

{"molecule": "CCCOc1cccc(Nc2c(-c3ccncc3)[nH]c3c2C(=O)CC(C)(C)C3)c1", "target-of-assay": "(recombinant) catalytic domain of human Bub1 (amino acids 704-1085) (Homo sapiens (Human))", "measured-metric": "log10(IC50)", "observed": 2.02}
{"molecule": "CC1(C)CC(=O)c2c([nH]c(-c3ccncc3)c2Nc2ccccc2CCO)C1", "target-of-assay": "(recombinant) catalytic domain of human Bub1 (amino acids 704-1085) (Homo sapiens (Human))", "measured-metric": "log10(IC50)", "observed": 0.92}
{"molecule": "CC1(C)CC(=O)c2c([nH]c(-c3ccncc3)c2Nc2ccnc3ccccc23)C1", "target-of-assay": "(recombinant) catalytic domain of human Bub1 (amino acids 704-1085) (Homo sapiens (Human))", "measured-metric": "log10(IC50)", "observed": 4.15}
{"molecule": "O=C1CC2(CC2)Cc2[nH]c(-c3ccncc3)c(Nc3ccccc3)c21", "target-of-assay": "(recombinant) catalytic domain of human Bub1 (amino acids 704-1085) (Homo sapiens (Human))", "measured-metric": "log10(IC50)", "observed": 0.93}
{"molecule": "O=C1CCCc2[nH]c(-c3ccnc(NCc4ccncc4)c3)c(Nc3ccccc3)c21", "target-of-assay": "(recombinant) catalytic domain of human Bub1 (amino acids 704-1085) (Homo sapiens (Human))", "measured-metric": "log10(IC50)", "observed": 2.46}
{"molecule": "O=C1CCCc2[nH]c(-c3ccnc(NC(=S)NCC4CC4)c3)c(Nc3ccccc3)c21", "target-of-assay": "(recombinant) catalytic domain of human Bub1 (amino acids 704-1085) (Homo sapiens (Human))", "measured-metric": "log10(IC50)", "observed": 2.74}
{"molecule": "O=C1CCCc2[nH]c(-c3ccnc(NCc4ccccc4)c3)c(Nc3ccccc3)c21", "target-of-assay": "(recombinant) catalytic domain of human Bub1 (amino acids 704-1085) (Homo sapiens (Human))", "measured-metric": "log10(IC50)", "observed": 3.22}
{"molecule": "CC1(C)CC(=O)c2c([nH]c(-c3ccncc3)c2Nc2ccc(F)c(C#N)c2)C1", "target-of-assay": "(recombinant) catalytic domain of human Bub1 (amino acids 704-1085) (Homo sapiens (Human))", "measured-metric": "log10(IC50)", "observed": 2.41}
{"molecule": "CC1(C)CC(=O)c2c([nH]c(-c3ccnc(Cl)c3Cl)c2Nc2ccccc2)C1", "target-of-assay": "(recombinant) catalytic domain of human Bub1 (amino acids 704-1085) (Homo sapiens (Human))", "measured-metric": "log10(IC50)", "observed": 1.83}
{"molecule": "COc1ccc(Nc2c(-c3ccncc3)[nH]c3c2C(=O)CC(C)(C)C3)cc1OC", "target-of-assay": "(recombinant) catalytic domain of human Bub1 (amino acids 704-1085) (Homo sapiens (Human))", "measured-metric": "log10(IC50)", "observed": 4.30}
{"molecule": "CCCn1c2c(c(Nc3ccccc3)c1-c1ccncc1)C(=O)CC(C)(C)C2", "target-of-assay": "(recombinant) catalytic domain of human Bub1 (amino acids 704-1085) (Homo sapiens (Human))", "measured-metric": "log10(IC50)", "observed": 1.84}
{"molecule": "CC1(C)CC(=O)c2c([nH]c(-c3ccncc3C(F)(F)F)c2Nc2ccccc2)C1", "target-of-assay": "(recombinant) catalytic domain of human Bub1 (amino acids 704-1085) (Homo sapiens (Human))", "measured-metric": "log10(IC50)", "observed": 2.54}
{"molecule": "CC1(C)CC(=O)c2c([nH]c(-c3ccncc3)c2Nc2cccc(C(O)C(F)(F)F)c2)C1 (centres unmarked)", "target-of-assay": "(recombinant) catalytic domain of human Bub1 (amino acids 704-1085) (Homo sapiens (Human))", "measured-metric": "log10(IC50)", "observed": 3.23}
{"molecule": "CC1(C)CC(=O)c2c([nH]c(-c3ccncc3Br)c2Nc2ccccc2)C1", "target-of-assay": "(recombinant) catalytic domain of human Bub1 (amino acids 704-1085) (Homo sapiens (Human))", "measured-metric": "log10(IC50)", "observed": 1.08}
{"molecule": "Nc1cc(-c2[nH]c3c(c2Nc2ccc(F)c(F)c2)C(=O)CCC3)ccn1", "target-of-assay": "(recombinant) catalytic domain of human Bub1 (amino acids 704-1085) (Homo sapiens (Human))", "measured-metric": "log10(IC50)", "observed": 2.34}
{"molecule": "COc1cc(C(=O)Nc2cc(-c3[nH]c4c(c3Nc3ccccc3)C(=O)CCC4)ccn2)ccc1F", "target-of-assay": "(recombinant) catalytic domain of human Bub1 (amino acids 704-1085) (Homo sapiens (Human))", "measured-metric": "log10(IC50)", "observed": 1.00}
{"molecule": "O=C1CCCc2[nH]c(-c3ccnc(NC(=O)C4CCC4)c3)c(Nc3ccccc3)c21", "target-of-assay": "(recombinant) catalytic domain of human Bub1 (amino acids 704-1085) (Homo sapiens (Human))", "measured-metric": "log10(IC50)", "observed": 1.29}
